Catalogue of remaining activity at 1 µM values
Target: panel of 442 kinases (Homo sapiens, UniProt P00519, H396P)
Construct: purchased Ambit Biosciences (scanMAXX KINOMEscan)
Test: biochemical
Type: binding
Conditions: ABL1(H396P)-nonphosphorylated; 1 µM; read-out: % of control at 1 µM
propertyName: remaining activity at 1 µM (%)

| inputSmiles | readingUnit | endpointResult |
| --- | --- | --- |
| FC(F)c1nc2ccccc2n1-c1nc(N2CCOCC2)nc(N2CCOCC2)n1 | % | 100 |
| Cn1c(=O)n(-c2ccc(C(C)(C)C#N)cc2)c2c3cc(-c4cnc5ccccc5c4)ccc3ncc21 | % | 70 |
| COc1ncc(-c2ccc3nccc(-c4ccnnc4)c3c2)cc1NS(=O)(=O)c1ccc(F)cc1F | % | 100 |
| Nc1cc(C(F)(F)F)c(-c2cc(N3CCOCC3)nc(N3CCOCC3)n2)cn1 | % | 99 |

---

Catalogue of remaining activity at 1 µM values
Biological target: panel of 442 kinases (Homo sapiens)
Construct: purchased Ambit Biosciences (scanMAXX KINOMEscan)
Assay: biochemical
Format: binding
Settings: kinase MARK4; 1 µM; read-out: % of control at 1 µM
propertyName: remaining activity at 1 µM (%)

| inputSmiles | propertyName | endpointResult |
| --- | --- | --- |
| Nc1cc(C(F)(F)F)c(-c2cc(N3CCOCC3)nc(N3CCOCC3)n2)cn1 | remaining activity at 1 µM | 100 |
| FC(F)c1nc2ccccc2n1-c1nc(N2CCOCC2)nc(N2CCOCC2)n1 | remaining activity at 1 µM | 100 |
| Cn1c(=O)n(-c2ccc(C(C)(C)C#N)cc2)c2c3cc(-c4cnc5ccccc5c4)ccc3ncc21 | remaining activity at 1 µM | 61 |
| COc1ncc(-c2ccc3nccc(-c4ccnnc4)c3c2)cc1NS(=O)(=O)c1ccc(F)cc1F | remaining activity at 1 µM | 83 |

---

Target: panel of 442 kinases (Homo sapiens)
Construct: purchased Ambit Biosciences (scanMAXX KINOMEscan)
Assay: biochemical
Format: binding
Conditions: kinase PLK2; 1 µM; read-out: PLK2 (% of control at 1 µM)

| inputSmiles | remaining activity at 1 µM (%) |
| --- | --- |
| FC(F)c1nc2ccccc2n1-c1nc(N2CCOCC2)nc(N2CCOCC2)n1 | 100 |
| Nc1cc(C(F)(F)F)c(-c2cc(N3CCOCC3)nc(N3CCOCC3)n2)cn1 | 89 |
| COc1ncc(-c2ccc3nccc(-c4ccnnc4)c3c2)cc1NS(=O)(=O)c1ccc(F)cc1F | 100 |
| Cn1c(=O)n(-c2ccc(C(C)(C)C#N)cc2)c2c3cc(-c4cnc5ccccc5c4)ccc3ncc21 | 100 |

---

Molecular target: panel of 442 kinases (Homo sapiens)
Construct: purchased Ambit Biosciences (scanMAXX KINOMEscan)
Assay: biochemical
Format: binding
Details: AKT2; 1 µM; read-out: % of control at 1 µM
Catalogue of remaining activity at 1 µM values

| inputSmiles | remaining activity at 1 µM (%) |
| --- | --- |
| Cn1c(=O)n(-c2ccc(C(C)(C)C#N)cc2)c2c3cc(-c4cnc5ccccc5c4)ccc3ncc21 | 78 |
| Nc1cc(C(F)(F)F)c(-c2cc(N3CCOCC3)nc(N3CCOCC3)n2)cn1 | 100 |
| FC(F)c1nc2ccccc2n1-c1nc(N2CCOCC2)nc(N2CCOCC2)n1 | 80 |
| COc1ncc(-c2ccc3nccc(-c4ccnnc4)c3c2)cc1NS(=O)(=O)c1ccc(F)cc1F | 69 |

---

Catalogue of remaining activity at 1 µM values
Biological target: panel of 442 kinases (Homo sapiens, UniProt Q9BVS4)
Construct: purchased Ambit Biosciences (scanMAXX KINOMEscan)
Sequence (Q9BVS4 whole entry): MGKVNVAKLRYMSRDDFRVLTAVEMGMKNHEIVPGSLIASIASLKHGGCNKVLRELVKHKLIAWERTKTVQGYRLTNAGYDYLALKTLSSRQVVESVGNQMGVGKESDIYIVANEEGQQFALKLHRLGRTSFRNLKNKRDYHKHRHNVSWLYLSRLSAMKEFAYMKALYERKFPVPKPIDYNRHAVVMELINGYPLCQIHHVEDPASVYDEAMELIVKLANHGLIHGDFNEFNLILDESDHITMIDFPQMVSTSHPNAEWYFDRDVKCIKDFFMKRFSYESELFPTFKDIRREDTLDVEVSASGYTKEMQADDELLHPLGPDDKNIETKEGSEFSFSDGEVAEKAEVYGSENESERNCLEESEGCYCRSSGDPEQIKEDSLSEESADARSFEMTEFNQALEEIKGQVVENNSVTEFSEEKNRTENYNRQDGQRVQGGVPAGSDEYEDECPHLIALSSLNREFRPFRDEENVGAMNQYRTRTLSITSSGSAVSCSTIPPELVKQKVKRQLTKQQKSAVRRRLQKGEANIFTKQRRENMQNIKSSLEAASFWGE
Assay: biochemical
Type: binding
Conditions: kinase RIOK2; 1 µM; read-out: RIOK2 (% of control at 1 µM)
propertyName: remaining activity at 1 µM (%)

| inputSmiles | readingUnit | endpointResult |
| --- | --- | --- |
| FC(F)c1nc2ccccc2n1-c1nc(N2CCOCC2)nc(N2CCOCC2)n1 | % | 39 |
| Cn1c(=O)n(-c2ccc(C(C)(C)C#N)cc2)c2c3cc(-c4cnc5ccccc5c4)ccc3ncc21 | % | 65 |
| COc1ncc(-c2ccc3nccc(-c4ccnnc4)c3c2)cc1NS(=O)(=O)c1ccc(F)cc1F | % | 100 |
| Nc1cc(C(F)(F)F)c(-c2cc(N3CCOCC3)nc(N3CCOCC3)n2)cn1 | % | 100 |

---

Catalogue of remaining activity at 1 µM values
Biological target: panel of 442 kinases (Homo sapiens)
Construct: purchased Ambit Biosciences (scanMAXX KINOMEscan)
Test: biochemical
Format: binding
Conditions: kinase TNK1; 1 µM; read-out: TNK1 (% of control at 1 µM)

| inputSmiles | remaining activity at 1 µM / % |
| --- | --- |
| Nc1cc(C(F)(F)F)c(-c2cc(N3CCOCC3)nc(N3CCOCC3)n2)cn1 | 100 |
| Cn1c(=O)n(-c2ccc(C(C)(C)C#N)cc2)c2c3cc(-c4cnc5ccccc5c4)ccc3ncc21 | 88 |
| COc1ncc(-c2ccc3nccc(-c4ccnnc4)c3c2)cc1NS(=O)(=O)c1ccc(F)cc1F | 100 |
| FC(F)c1nc2ccccc2n1-c1nc(N2CCOCC2)nc(N2CCOCC2)n1 | 86 |

---

Molecular target: panel of 442 kinases (Homo sapiens, UniProt Q02750)
Construct: purchased Ambit Biosciences (scanMAXX KINOMEscan)
Sequence (Q02750 whole entry): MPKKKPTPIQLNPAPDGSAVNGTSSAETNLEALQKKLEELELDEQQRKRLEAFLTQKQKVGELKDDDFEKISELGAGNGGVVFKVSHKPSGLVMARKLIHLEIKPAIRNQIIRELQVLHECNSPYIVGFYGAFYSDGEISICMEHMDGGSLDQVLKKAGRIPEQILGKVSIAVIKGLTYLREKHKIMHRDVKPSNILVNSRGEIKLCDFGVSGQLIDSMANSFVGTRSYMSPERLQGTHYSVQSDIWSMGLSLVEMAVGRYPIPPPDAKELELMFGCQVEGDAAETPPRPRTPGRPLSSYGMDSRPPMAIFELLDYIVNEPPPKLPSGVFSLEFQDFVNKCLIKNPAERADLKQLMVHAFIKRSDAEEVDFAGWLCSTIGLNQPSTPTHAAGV
Assay: biochemical
Assay type: binding
Settings: kinase MEK1; 1 µM; read-out: % of control at 1 µM
Catalogue of remaining activity at 1 µM values

| compound | remaining activity at 1 µM |
| --- | --- |
| Nc1cc(C(F)(F)F)c(-c2cc(N3CCOCC3)nc(N3CCOCC3)n2)cn1 [Buparlisib] | 100% |
| COc1ncc(-c2ccc3nccc(-c4ccnnc4)c3c2)cc1NS(=O)(=O)c1ccc(F)cc1F [Omipalisib] | 100% |
| FC(F)c1nc2ccccc2n1-c1nc(N2CCOCC2)nc(N2CCOCC2)n1 [ZSTK474] | 100% |
| Cn1c(=O)n(-c2ccc(C(C)(C)C#N)cc2)c2c3cc(-c4cnc5ccccc5c4)ccc3ncc21 [Dactolisib] | 94% |

---

Target: panel of 442 kinases (Homo sapiens, UniProt Q96BR1)
Construct: purchased Ambit Biosciences (scanMAXX KINOMEscan)
Sequence (Q96BR1 whole entry): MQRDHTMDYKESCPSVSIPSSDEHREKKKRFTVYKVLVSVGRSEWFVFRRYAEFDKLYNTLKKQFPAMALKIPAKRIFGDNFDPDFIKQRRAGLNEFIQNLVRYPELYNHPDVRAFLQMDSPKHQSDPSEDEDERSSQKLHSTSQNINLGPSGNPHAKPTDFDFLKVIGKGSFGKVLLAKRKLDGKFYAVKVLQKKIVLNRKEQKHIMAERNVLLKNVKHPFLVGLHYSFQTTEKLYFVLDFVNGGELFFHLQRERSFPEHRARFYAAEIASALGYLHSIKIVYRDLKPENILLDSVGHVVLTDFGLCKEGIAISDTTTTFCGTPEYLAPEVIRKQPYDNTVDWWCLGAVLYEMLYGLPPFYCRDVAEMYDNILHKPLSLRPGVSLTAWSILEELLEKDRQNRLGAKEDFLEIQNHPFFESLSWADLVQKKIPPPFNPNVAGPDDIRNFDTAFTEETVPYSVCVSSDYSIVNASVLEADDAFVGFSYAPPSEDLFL
Experiment: biochemical
Type: binding
Details: kinase SGK3; 1 µM; read-out: SGK3 (% of control at 1 µM)

| inputSmiles | remaining activity at 1 µM |
| --- | --- |
| COc1ncc(-c2ccc3nccc(-c4ccnnc4)c3c2)cc1NS(=O)(=O)c1ccc(F)cc1F | 92% |
| Cn1c(=O)n(-c2ccc(C(C)(C)C#N)cc2)c2c3cc(-c4cnc5ccccc5c4)ccc3ncc21 | 100% |
| FC(F)c1nc2ccccc2n1-c1nc(N2CCOCC2)nc(N2CCOCC2)n1 | 87% |
| Nc1cc(C(F)(F)F)c(-c2cc(N3CCOCC3)nc(N3CCOCC3)n2)cn1 | 79% |

---

Biological target: CYP2D6 (Homo sapiens)
Sequence (P10635 whole entry): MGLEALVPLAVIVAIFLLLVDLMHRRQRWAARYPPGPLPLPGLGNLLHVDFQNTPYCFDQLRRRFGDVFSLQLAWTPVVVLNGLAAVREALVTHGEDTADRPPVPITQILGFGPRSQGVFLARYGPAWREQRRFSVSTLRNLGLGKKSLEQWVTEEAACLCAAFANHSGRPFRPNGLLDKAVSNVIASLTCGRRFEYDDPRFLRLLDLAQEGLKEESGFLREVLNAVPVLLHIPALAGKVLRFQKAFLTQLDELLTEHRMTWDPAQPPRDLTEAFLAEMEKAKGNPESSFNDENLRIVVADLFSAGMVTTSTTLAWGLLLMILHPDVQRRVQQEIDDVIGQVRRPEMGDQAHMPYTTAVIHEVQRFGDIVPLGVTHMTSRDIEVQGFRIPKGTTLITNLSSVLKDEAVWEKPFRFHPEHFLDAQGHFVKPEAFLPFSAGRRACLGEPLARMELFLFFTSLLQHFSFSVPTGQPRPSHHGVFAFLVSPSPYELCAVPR

| inputSmiles | IC50 |
| --- | --- |
| COc1cccc2c1nc(C(F)F)n2-c1nc(N2CCOCC2)nc(N2CCN(S(=O)(=O)CCN(C)C)CC2)n1 | > 25 µM |

---

Molecular target: panel of 442 kinases (Homo sapiens, UniProt Q15831)
Construct: purchased Ambit Biosciences (scanMAXX KINOMEscan)
Sequence (Q15831 whole entry): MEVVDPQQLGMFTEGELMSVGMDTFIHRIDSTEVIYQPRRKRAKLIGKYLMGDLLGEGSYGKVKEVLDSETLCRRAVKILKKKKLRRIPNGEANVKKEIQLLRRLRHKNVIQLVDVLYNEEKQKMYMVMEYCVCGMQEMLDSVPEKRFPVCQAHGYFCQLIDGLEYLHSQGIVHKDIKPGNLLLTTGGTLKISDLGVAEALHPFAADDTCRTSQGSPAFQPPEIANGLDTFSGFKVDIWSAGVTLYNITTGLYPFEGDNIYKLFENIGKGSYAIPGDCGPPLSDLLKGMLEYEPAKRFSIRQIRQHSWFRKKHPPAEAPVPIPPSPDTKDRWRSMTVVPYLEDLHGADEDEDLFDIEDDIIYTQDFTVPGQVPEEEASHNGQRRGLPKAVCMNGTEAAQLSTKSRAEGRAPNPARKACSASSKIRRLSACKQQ
Assay: biochemical
Format: binding
Settings: kinase LKB1; 1 µM; read-out: % of control at 1 µM
propertyName: remaining activity at 1 µM (%)

| inputSmiles | testedTarget | propertyName | endpointResult |
| --- | --- | --- | --- |
| COc1ncc(-c2ccc3nccc(-c4ccnnc4)c3c2)cc1NS(=O)(=O)c1ccc(F)cc1F | panel of 442 kinases (Homo sapiens, UniProt Q15831) | remaining activity at 1 µM | 100 |
| Cn1c(=O)n(-c2ccc(C(C)(C)C#N)cc2)c2c3cc(-c4cnc5ccccc5c4)ccc3ncc21 | panel of 442 kinases (Homo sapiens, UniProt Q15831) | remaining activity at 1 µM | 93 |
| FC(F)c1nc2ccccc2n1-c1nc(N2CCOCC2)nc(N2CCOCC2)n1 | panel of 442 kinases (Homo sapiens, UniProt Q15831) | remaining activity at 1 µM | 100 |
| Nc1cc(C(F)(F)F)c(-c2cc(N3CCOCC3)nc(N3CCOCC3)n2)cn1 | panel of 442 kinases (Homo sapiens, UniProt Q15831) | remaining activity at 1 µM | 100 |

---

Target: panel of 442 kinases (Homo sapiens, UniProt Q13882)
Construct: purchased Ambit Biosciences (scanMAXX KINOMEscan)
Sequence (Q13882 whole entry): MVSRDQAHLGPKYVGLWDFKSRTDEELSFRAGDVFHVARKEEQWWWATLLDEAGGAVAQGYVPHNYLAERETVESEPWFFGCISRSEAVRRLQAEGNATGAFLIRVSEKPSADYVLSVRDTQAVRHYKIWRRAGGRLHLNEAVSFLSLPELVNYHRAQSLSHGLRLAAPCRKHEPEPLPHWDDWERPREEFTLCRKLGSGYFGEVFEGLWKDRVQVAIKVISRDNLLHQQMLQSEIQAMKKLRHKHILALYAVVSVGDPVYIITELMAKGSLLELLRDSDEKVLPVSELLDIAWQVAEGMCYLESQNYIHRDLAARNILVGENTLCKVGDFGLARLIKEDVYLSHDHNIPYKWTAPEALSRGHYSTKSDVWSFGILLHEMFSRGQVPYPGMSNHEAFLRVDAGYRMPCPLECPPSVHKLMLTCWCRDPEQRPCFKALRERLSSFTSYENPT
Assay: biochemical
Assay type: binding
Conditions: BRK; 1 µM; read-out: % of control at 1 µM
Catalogue of remaining activity at 1 µM values

| compound | remaining activity at 1 µM / % |
| --- | --- |
| Nc1cc(C(F)(F)F)c(-c2cc(N3CCOCC3)nc(N3CCOCC3)n2)cn1 [Buparlisib] | 100 |
| Cn1c(=O)n(-c2ccc(C(C)(C)C#N)cc2)c2c3cc(-c4cnc5ccccc5c4)ccc3ncc21 [Dactolisib] | 90 |
| COc1ncc(-c2ccc3nccc(-c4ccnnc4)c3c2)cc1NS(=O)(=O)c1ccc(F)cc1F [Omipalisib] | 91 |
| FC(F)c1nc2ccccc2n1-c1nc(N2CCOCC2)nc(N2CCOCC2)n1 [ZSTK474] | 91 |
